// data source = ChEMBL document CHEMBL4513216

Listed below: INHIBITION values for each entry.
- Tested on: Plasmodium berghei
- assay overview: Screen against P. berghei liver stage (PbLuc), transformed with Luciferase, at 2uM
- Assay type: functional, HepG2
- experimental parameters: tested at 2 uM
Hit rate of the full screen: of about 68,000 compounds, about 2,700 (4%) showed an effect of 50% or more. Many of the other results were omitted from the sample, so strong results are more common in it than they were.
experimental readout: INHIBITION (%)

[[record]]
compound = "CC(C)(C)CNCC1(O)CCCN(Cc2ccccc2F)C1=O (centres undefined)"
target_desc = "Plasmodium berghei"
data_value = 36.66

[[record]]
compound = "c1ccc(OCc2nnn3c2CN(c2ncccn2)CCC3)nc1"
target_desc = "Plasmodium berghei"
data_value = -7.52

[[record]]
compound = "CCCn1nc(C)c2c1NC(=O)CC2c1ccc(CN2CCCC2)s1 (centres undefined)"
target_desc = "Plasmodium berghei"
data_value = 5.02

[[record]]
compound = "CCCN1CCN(C(=O)Cc2cccnc2)[C@H]2CS(=O)(=O)C[C@H]21"
target_desc = "Plasmodium berghei"
data_value = 23.19

[[record]]
compound = "O=C(Nc1cnc2n1CCCC2)C1CCCN1C1CCNCC1 (centres undefined)"
target_desc = "Plasmodium berghei"
data_value = -26.04

[[record]]
compound = "COCC(=O)N1CCCCC1c1nccc(C)n1 (centres undefined)"
target_desc = "Plasmodium berghei"
data_value = 18.22

[[record]]
compound = "COC(=O)CC(c1ccc(OC)c(OC)c1OC)c1c(O)n[nH]c1C (centres undefined)"
target_desc = "Plasmodium berghei"
data_value = -8.07

[[record]]
compound = "Cn1ncc2c1CCCN(C(=O)C1CCC1)C2"
target_desc = "Plasmodium berghei"
data_value = 7.46

[[record]]
compound = "O=C(CSc1ccccn1)N1CCN(CCO)[C@@H]2CS(=O)(=O)C[C@@H]21"
target_desc = "Plasmodium berghei"
data_value = 67.28

[[record]]
compound = "CCCN(Cc1ccccc1O)S(=O)(=O)C(C)CC (centres undefined)"
target_desc = "Plasmodium berghei"
data_value = 17.48

[[record]]
compound = "CC(Sc1nnc(C2CC2)n1CC(N)=O)c1ccc(Cl)cc1 (centres undefined)"
target_desc = "Plasmodium berghei"
data_value = -87.32

[[record]]
compound = "COc1ccc(F)c(CN2CCCC(O)(CNCC(C)(C)C)C2=O)c1 (centres undefined)"
target_desc = "Plasmodium berghei"
data_value = 70.81

[[record]]
compound = "CC(C)c1nc(CSc2nnc(-c3cccs3)n2CC(N)=O)no1"
target_desc = "Plasmodium berghei"
data_value = 51.4

[[record]]
compound = "O=C1NCCCC[C@@H]1Nc1ccc(-c2nc(C3CC3)no2)cn1"
target_desc = "Plasmodium berghei"
data_value = 8.75

[[record]]
compound = "O=C(CN1CC(c2nc(C3CC3)no2)C1)N1CCOCC1"
target_desc = "Plasmodium berghei"
data_value = 56.9

[[record]]
compound = "CCc1noc(C(C)Sc2nnc(C3CC3)n2CC(N)=O)n1 (centres undefined)"
target_desc = "Plasmodium berghei"
data_value = 35.26

[[record]]
compound = "CCCN1CCN(C(=O)c2cccc(C)n2)[C@H]2CS(=O)(=O)C[C@H]21"
target_desc = "Plasmodium berghei"
data_value = 6.84

[[record]]
compound = "CC(C)c1nc(CSc2nnc(C3CC3)n2CC(N)=O)no1"
target_desc = "Plasmodium berghei"
data_value = 53.55

[[record]]
compound = "CC1CCN(C(=O)CN2CC(c3nc(C4CC4)no3)C2)CC1"
target_desc = "Plasmodium berghei"
data_value = 12.57

[[record]]
compound = "CN(C)CCNc1cc(-c2ncccc2Cl)c2cc[nH]c2n1"
target_desc = "Plasmodium berghei"
data_value = 10.22

[[record]]
compound = "CC(C(=O)N1CCN(C(=O)c2ccc(F)cc2)CC1)n1ccnc1 (centres undefined)"
target_desc = "Plasmodium berghei"
data_value = 54.41

[[record]]
compound = "O=C(CN1CCCC(c2noc(C3CC3)n2)C1)N1CCCC1 (centres undefined)"
target_desc = "Plasmodium berghei"
data_value = 19.45

[[record]]
compound = "Cc1ccc(C(=O)N2CCN(C(=O)C(C)n3ccnc3)CC2)cc1F (centres undefined)"
target_desc = "Plasmodium berghei"
data_value = 38.65

[[record]]
compound = "CCC1c2ccsc2CCN1C(=O)NCc1ccc(C)nc1 (centres undefined)"
target_desc = "Plasmodium berghei"
data_value = 11.09

